Assay: Stability of mRNA-LNPs according to storage temperature and duration
Format: physicochemical
Details: fLuc mRNA-LNP stored at 4° C., day 1
# Normalized EE % D-1 listing for each entry below

{"columns": ["COMPOUND", "Normalized EE % D-1 (%)"],
 "data": [
  ["CCCCCCCCCCCOC(=O)CCCCCN(CCCCCCCC(=O)OC(CCCCCCCC)CCCCCCCC)CC(O)CCCCNC(=O)c1cccn1C (stereo not shown)", 88.0],
  ["CCCCCCCCCCCOC(=O)CCCCCN(CCCCCCCC(=O)OC(CCCCCCCC)CCCCCCCC)CC(O)CCCCNC(=O)c1ccc[nH]1 (stereo not shown)", 90.9],
  ["CCCCCCCCCCCOC(=O)CCCCCN(CCCCCCCC(=O)OC(CCCCCCCC)CCCCCCCC)CC(O)CCCCNC(=O)c1cn(C)cn1 (stereo not shown)", 89.5],
  ["CCCCCCCCCCCOC(=O)CCCCCN(CCCCCCCC(=O)OC(CCCCCCCC)CCCCCCCC)CC(O)CCCCNC(=O)c1ccn(C)c1 (stereo not shown)", 93.1],
  ["CCCCCCCCCCCOC(=O)CCCCCN(CCCCCCCC(=O)OC(CCCCCCCC)CCCCCCCC)CC(O)CCCCNC(=O)c1cnc(O)n1C (stereo not shown)", 92.3],
  ["CCCCCCCCCCCOC(=O)CCCCCN(CCCCCCCC(=O)OC(CCCCCCCC)CCCCCCCC)CC(O)CCCCNC(=O)c1nccn1C (stereo not shown)", 87.2],
  ["CCCCCCCCCCCOC(=O)CCCCCN(CCCCCCCC(=O)OC(CCCCCCCC)CCCCCCCC)CC(O)CCCCNC(=O)c1c[nH]c(O)n1 (stereo not shown)", 90.2],
  ["CCCCCCCCCCCOC(=O)CCCCCN(CCCCCCCC(=O)OC(CCCCCCCC)CCCCCCCC)CC(O)CCCCNC(=O)c1cncn1C (stereo not shown)", 88.5],
  ["CCCCCCCCCCCOC(=O)CCCCCN(CCCCCCCC(=O)OC(CCCCCCCC)CCCCCCCC)CC(O)CCCCNC(=O)c1c(O)ccn1C (stereo not shown)", 89.7],
  ["CCCCCCCCCCCOC(=O)CCCCCN(CCCCCCCC(=O)OC(CCCCCCCC)CCCCCCCC)CC(O)CCCCNC(=O)c1c[nH]cn1 (stereo not shown)", 94.0],
  ["CCCCCCCCCCCOC(=O)CCCCCN(CCCCCCCC(=O)OC(CCCCCCCC)CCCCCCCC)CC(O)CCCCNC(=O)c1cc[nH]c1 (stereo not shown)", 94.0],
  ["CCCCC/C=C\\C/C=C\\CCCCCCCCC(CCCCCCCC/C=C\\C/C=C\\CCCCC)OC(=O)CCCN(C)C [MC3, DLin-MC3-DMA, reference compound]", 95.0],
  ["CCCCCCCCCCCOC(=O)CCCCCN(CCCCCCCC(=O)OC(CCCCCCCC)CCCCCCCC)CC(O)CCCCNC(=O)c1ncc[nH]1 (stereo not shown)", 90.0]
]}

# credit: patent US20260184669A1
